Molecular target: human IL-6 (human, UniProt P05231 30-212)
Sequence (P05231 30-212 limits assumed): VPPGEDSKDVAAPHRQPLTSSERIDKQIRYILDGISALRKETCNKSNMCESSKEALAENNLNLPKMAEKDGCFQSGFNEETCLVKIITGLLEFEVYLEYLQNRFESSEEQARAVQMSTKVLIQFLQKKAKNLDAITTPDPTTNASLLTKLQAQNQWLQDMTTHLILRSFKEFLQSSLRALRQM
Assay: SPR Biacore, purified, Protein A capture, 37 C
This listing pairs binders with measured Kd.
Report only the number, with the unit nM understood.

binder	u	observed-value
Anti-IL-6 antibody, heavy chain S35H, G66D, L100V / light chain M32L, M50D, N52S, M88Q (antibody, IgG1, V domains shown, IgG1; variable domains only; VL is variant III) VH: EVQLVESGGGLVQPGGSLRLSCAASGFTFSPFAMHWVRQAPGKGLEWVAKISPGGSWTYYSDTVTDRFTFSLDTSKSTAYLQMNSLRAEDTAVYYCARQVWGYYALDIWGQGTLVTVSS VL: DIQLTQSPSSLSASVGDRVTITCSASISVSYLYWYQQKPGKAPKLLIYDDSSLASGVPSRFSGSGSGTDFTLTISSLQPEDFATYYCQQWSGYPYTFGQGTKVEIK	nM	0.238

Then there is this binder:
Input: Request the reported Kd associated with Anti-IL-6 antibody, heavy chain S35H, G66D, L100Q / light chain M32L, M50D, N52S, M88Q (antibody, IgG1, V domains shown, IgG1; variable domains only; VL is variant III) VH: EVQLVESGGGLVQPGGSLRLSCAASGFTFSPFAMHWVRQAPGKGLEWVAKISPGGSWTYYSDTVTDRFTFSLDTSKSTAYLQMNSLRAEDTAVYYCARQQWGYYALDIWGQGTLVTVSS VL: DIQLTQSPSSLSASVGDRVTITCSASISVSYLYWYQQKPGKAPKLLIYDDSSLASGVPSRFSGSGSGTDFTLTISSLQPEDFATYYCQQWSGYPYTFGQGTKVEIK
Output: 0.149
